Ref: patent US8344008B2

Target Of Assay: recombinant human LTA4 hydrolase (rhLTA4H) (Homo sapiens, UniProt P09960)
Construct: made in house; host or cells: Spodoptera frugiperda (Sf-9) cells, baculovirus (pFastBac1)
Sequence (P09960 whole entry): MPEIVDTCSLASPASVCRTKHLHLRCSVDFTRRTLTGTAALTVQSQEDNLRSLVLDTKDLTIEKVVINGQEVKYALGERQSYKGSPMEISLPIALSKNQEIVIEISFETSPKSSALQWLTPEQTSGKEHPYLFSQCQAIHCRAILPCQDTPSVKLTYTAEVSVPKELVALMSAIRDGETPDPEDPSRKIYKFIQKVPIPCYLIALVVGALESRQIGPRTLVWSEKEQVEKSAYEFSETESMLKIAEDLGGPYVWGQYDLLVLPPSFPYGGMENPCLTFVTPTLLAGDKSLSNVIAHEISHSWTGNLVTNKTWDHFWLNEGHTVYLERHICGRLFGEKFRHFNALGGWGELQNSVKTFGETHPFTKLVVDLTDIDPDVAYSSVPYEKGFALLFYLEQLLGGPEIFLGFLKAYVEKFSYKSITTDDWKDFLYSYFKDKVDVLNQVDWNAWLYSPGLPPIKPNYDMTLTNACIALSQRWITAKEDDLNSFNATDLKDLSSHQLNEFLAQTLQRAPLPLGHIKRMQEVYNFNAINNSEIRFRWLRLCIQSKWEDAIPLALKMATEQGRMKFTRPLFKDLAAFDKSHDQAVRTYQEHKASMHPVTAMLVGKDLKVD
Assay Notes: Recombinant Human LTA4 Hydrolase Assay for LTA4 Hydrolase Inhibitor Activity
Format: biochemical
Test Context: average of results obtained; LTB4 quantified by enzyme-linked immunoassay
pKi: −log10 of the molar value.
Experimental Endpoint: pKi

NC(=O)N1C[C@@H]2C[C@H]1CN2CCc1ccc(Oc2nc3ccccc3s2)cc1	8.52
NC(=O)N1C2CCC1CN(Cc1ccc(Oc3nc4ccccc4s3)cc1)C2	6.76
CC(=O)N1CC2CCC(C1)N2CCOc1ccc(Oc2nc3cccc(Cl)c3s2)cc1	6.47
CS(=O)(=O)N1C[C@@H]2C[C@H]1CN2Cc1ccc(Cc2nc3ccccc3s2)cc1	6.72

P = O=C(C1CNC1)N1CC2CN(Cc3ccc(Oc4nc5ccccc5s4)cc3)CC2C1 (centres unmarked)
Q = O=C(CO)N1C[C@@H]2C[C@H]1CN2CCOc1ccc(Oc2nc3ccccc3s2)cc1
R = CC(=O)N1[C@@H]2CC[C@H]1C[C@H](NCc1ccc(Oc3nc4ccc(C)cc4s3)cc1)C2
S = CC(=O)N[C@@H]1C[C@H]2CC[C@@H](C1)N2CCOc1ccc(Oc2nc3cccc(Cl)c3s2)cc1
Please list these compounds in decreasing order of pKi. Kindly provide the labels arranged according to the requested ordering.
Q, P, R, S

---

Target Of Assay: recombinant human LTA4 hydrolase (rhLTA4H) (Homo sapiens, UniProt P09960)
Assay Notes: Recombinant Human LTA4 Hydrolase Assay for LTA4 Hydrolase Inhibitor Activity
Test Context: average of results obtained; LTB4 quantified by enzyme-linked immunoassay
pKi: −log10 of the molar value. Structures can show the parent of a compound that is named as a salt.
Experimental Endpoint: pKi

Some compounds with known pKi results, for comparison:
CC(=O)N[C@@H]1C[C@H]2CC[C@@H](C1)N2CCc1ccc(Oc2nc3ccc(Cl)cc3s2)cc1 [Example 163]	7.07
CC(C)(C)OC(=O)N1CC(C(=O)N2C[C@@H]3C[C@H]2CN3CCOc2ccc(Oc3nc4ccccc4s3)cc2)C1 [Example 67]	6.70
O=C(N1C[C@@H]2C[C@H]1CN2CCc1ccc(Oc2nc3ccccc3s2)cc1)C1(O)CC1 [Example 16]	7.96
COCC(=O)N1C[C@@H]2C[C@H]1CN2CCc1ccc(Oc2nc3ccccc3s2)cc1 [Example 42]	7.47
CC(=O)N1C[C@H]2C[C@@H]1CN2CCOc1ccc(Oc2nc3cccc(F)c3s2)cc1 [Example 218]	7.70

1 = CS(=O)(=O)N1CC2CN(Cc3ccc(Oc4nc5ccccc5s4)cc3)CC2C1 (stereo not drawn) [Example 129]
2 = c1cc(CN2C[C@@H]3C[C@H]2CN3)cc(Oc2nc3ccccc3s2)c1 [Example 69, hydrochloride]
3 = CS(=O)(=O)N[C@H]1C[C@H]2CC[C@@H](C1)N2Cc1ccc(Oc2nc3cc(F)ccc3s2)cc1 [Example 208]
4 = CC(=O)N1C[C@@H]2C[C@H]1CN2CCOc1ccc(Oc2nc3cc(Cl)ccc3s2)cc1 [Example 264]
5 = CC(C)(C)OC(=O)CN1C[C@@H]2C[C@H]1CN2Cc1ccc(Oc2nc3ccccc3s2)cc1 [Example 50]
Rank items: key pKi, increasing. Kindly provide the labels arranged according to the requested ordering.
2, 4, 1, 3, 5

a = CS(=O)(=O)N1[C@@H]2CC[C@H]1C[C@@H](NCCOc1ccc(Oc3nc4c(Cl)cccc4s3)cc1)C2 [Example 194]
b = CC(=O)N[C@H]1C[C@H]2CC[C@@H](C1)N2CCOc1ccc(Oc2nc3c(F)cccc3s2)cc1 [Example 273]
Please tell me which of the two, a or b , has the higher reported pKi value. Refer to your chosen item by its label in the answer.
b

I = NC(=O)N[C@@H]1C[C@H]2CC[C@@H](C1)N2Cc1ccc(Oc2nc3c(Cl)cccc3s2)cc1 [Example 229]
II = NC(=O)N[C@H]1C[C@H]2CC[C@@H](C1)N2CCc1ccc(Oc2nc3ccc(Cl)cc3s2)cc1 [Example 239]
Which record shows the lower pKi: the first, I , or the second, II ? Refer to your chosen item by its label in the answer.
II
(II: 6.89, I: 7.70)
